I'd appreciate it if you could supply residual activity values for the items below.
Molecular target: Ribosomal protein S6 kinase alpha-1 (Homo sapiens)
Conditions: at 10 µM
Answers are plain numbers, in %.

>  <GIVEN_SMILES>
COc1cc2nccc(Oc3ccc(NC(=S)NC(=O)c4ccccc4C)cc3)c2cc1OC

>  <REPORTED>
81

$$$$
>  <GIVEN_SMILES>
Fc1ccc(-c2nc3n(c2-c2ccncc2)CCS3)cc1

>  <REPORTED>
81

$$$$
>  <GIVEN_SMILES>
N#Cc1c(NC(=O)c2cccc3ccccc23)sc2c1CCCC2

>  <REPORTED>
94

$$$$

Provide reported residual activity for each item, in the same order as listed.
1. O=C1Cc2c([nH]c3ccc(Br)cc23)-c2ccccc2N1
2. CCCC(=O)Oc1ccc2[nH]c(C(=O)c3cc4ccccc4[nH]3)cc2c1

1. 77
2. 99

---

I'd appreciate it if you could supply residual activity values for the items below.
Molecular target: Serine/threonine-protein kinase BRSK2 (Homo sapiens) (UniProt Q8IWQ3)
Sequence (whole entry): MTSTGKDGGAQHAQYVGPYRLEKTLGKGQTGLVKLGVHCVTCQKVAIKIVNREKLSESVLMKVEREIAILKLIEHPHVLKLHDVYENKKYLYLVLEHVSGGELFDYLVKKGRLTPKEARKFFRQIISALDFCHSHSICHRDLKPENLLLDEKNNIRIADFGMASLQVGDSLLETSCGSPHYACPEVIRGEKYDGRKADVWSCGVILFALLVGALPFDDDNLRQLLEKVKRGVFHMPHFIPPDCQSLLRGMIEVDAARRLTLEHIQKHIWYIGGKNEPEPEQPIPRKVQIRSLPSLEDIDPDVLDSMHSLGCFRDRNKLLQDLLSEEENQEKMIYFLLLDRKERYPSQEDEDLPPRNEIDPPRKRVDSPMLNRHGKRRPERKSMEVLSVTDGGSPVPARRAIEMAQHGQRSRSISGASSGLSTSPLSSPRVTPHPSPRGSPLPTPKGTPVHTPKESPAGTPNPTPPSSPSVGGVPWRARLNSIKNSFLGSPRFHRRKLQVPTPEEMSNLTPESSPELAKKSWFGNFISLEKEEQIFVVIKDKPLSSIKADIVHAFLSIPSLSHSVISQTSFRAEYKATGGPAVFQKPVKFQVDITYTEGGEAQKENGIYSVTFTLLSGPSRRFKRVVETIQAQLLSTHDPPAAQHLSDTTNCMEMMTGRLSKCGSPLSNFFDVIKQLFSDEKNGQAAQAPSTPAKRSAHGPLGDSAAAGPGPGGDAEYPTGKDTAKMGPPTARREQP
Conditions: at 1 µM
Numbers only, in %.

>  <COMPOUND>
N#C/C(=C1/Nc2ccccc2S1)c1ccnc(NCCc2cccnc2)n1

>  <REPORTED>
96

$$$$
>  <COMPOUND>
O=C(NC(NC(=S)Nc1ccc(F)c([N+](=O)[O-])c1)C(Cl)(Cl)Cl)C(c1ccccc1)c1ccccc1 (configuration not stated)

>  <REPORTED>
93

$$$$

Provide reported residual activity for each item, in the same order as listed.
1. O=C(CCCc1ccc(-c2ccccc2F)cc1)Nc1ccc(O)cc1
2. O=C1Cc2c([nH]c3ccc([N+](=O)[O-])cc23)-c2ccccc2N1
3. COc1cc2c(cc1OC)-c1n[nH]c(Nc3cccc(F)c3)c1C2

1. 107
2. 32
3. 104

---

I'd appreciate it if you could supply residual activity values for the items below.
Biological target: Serine/threonine-protein kinase 33 (Homo sapiens) (UniProt Q9BYT3)
Sequence (Q9BYT3 whole entry, looked up): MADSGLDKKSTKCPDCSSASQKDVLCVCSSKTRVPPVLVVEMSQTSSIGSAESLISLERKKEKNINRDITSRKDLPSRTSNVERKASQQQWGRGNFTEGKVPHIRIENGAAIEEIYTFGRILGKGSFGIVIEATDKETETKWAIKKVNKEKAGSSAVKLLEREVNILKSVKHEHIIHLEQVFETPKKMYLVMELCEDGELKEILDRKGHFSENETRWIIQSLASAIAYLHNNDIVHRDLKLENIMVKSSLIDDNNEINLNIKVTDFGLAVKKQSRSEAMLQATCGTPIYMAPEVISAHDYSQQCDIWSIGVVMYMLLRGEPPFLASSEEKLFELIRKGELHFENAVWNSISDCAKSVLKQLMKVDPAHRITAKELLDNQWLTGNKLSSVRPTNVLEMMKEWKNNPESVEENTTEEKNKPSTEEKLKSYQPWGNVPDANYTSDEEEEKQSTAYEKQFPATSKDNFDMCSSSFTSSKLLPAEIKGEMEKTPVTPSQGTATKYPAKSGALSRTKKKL
Conditions: at 1 µM
Numbers only, in %.

Provide reported residual activity for each item, in the same order as listed.
1. O=C(Nc1nc2ccccc2n1CCN1CCOCC1)c1cccc([N+](=O)[O-])c1
2. CCCCc1c(-c2ccc(O)cc2)[nH]c2nccnc12
3. O=C1Nc2ccccc2/C1=C\c1c(Cl)[nH]c2ccccc12
4. Nc1ncnc2c1cnn2-c1ccccc1
5. O=C1NC(=O)C(c2cn(CCCn3ccnc3)c3ccccc23)=C1Nc1ccccc1

1. 83
2. 99
3. 99
4. 97
5. 75

Provide reported residual activity for each item, in the same order as listed.
1. O=C(O)/C=C/c1cc(Br)c(Br)c(Br)c1Br
2. CN(C)S(=O)(=O)c1ccc2c(c1)/C(=C/c1cc3c([nH]1)CCCC3)C(=O)N2

1: 103; 2: 85

---

Molecular target: Vascular endothelial growth factor receptor 3 (Homo sapiens) (UniProt P35916)
Sequence (P35916 whole entry): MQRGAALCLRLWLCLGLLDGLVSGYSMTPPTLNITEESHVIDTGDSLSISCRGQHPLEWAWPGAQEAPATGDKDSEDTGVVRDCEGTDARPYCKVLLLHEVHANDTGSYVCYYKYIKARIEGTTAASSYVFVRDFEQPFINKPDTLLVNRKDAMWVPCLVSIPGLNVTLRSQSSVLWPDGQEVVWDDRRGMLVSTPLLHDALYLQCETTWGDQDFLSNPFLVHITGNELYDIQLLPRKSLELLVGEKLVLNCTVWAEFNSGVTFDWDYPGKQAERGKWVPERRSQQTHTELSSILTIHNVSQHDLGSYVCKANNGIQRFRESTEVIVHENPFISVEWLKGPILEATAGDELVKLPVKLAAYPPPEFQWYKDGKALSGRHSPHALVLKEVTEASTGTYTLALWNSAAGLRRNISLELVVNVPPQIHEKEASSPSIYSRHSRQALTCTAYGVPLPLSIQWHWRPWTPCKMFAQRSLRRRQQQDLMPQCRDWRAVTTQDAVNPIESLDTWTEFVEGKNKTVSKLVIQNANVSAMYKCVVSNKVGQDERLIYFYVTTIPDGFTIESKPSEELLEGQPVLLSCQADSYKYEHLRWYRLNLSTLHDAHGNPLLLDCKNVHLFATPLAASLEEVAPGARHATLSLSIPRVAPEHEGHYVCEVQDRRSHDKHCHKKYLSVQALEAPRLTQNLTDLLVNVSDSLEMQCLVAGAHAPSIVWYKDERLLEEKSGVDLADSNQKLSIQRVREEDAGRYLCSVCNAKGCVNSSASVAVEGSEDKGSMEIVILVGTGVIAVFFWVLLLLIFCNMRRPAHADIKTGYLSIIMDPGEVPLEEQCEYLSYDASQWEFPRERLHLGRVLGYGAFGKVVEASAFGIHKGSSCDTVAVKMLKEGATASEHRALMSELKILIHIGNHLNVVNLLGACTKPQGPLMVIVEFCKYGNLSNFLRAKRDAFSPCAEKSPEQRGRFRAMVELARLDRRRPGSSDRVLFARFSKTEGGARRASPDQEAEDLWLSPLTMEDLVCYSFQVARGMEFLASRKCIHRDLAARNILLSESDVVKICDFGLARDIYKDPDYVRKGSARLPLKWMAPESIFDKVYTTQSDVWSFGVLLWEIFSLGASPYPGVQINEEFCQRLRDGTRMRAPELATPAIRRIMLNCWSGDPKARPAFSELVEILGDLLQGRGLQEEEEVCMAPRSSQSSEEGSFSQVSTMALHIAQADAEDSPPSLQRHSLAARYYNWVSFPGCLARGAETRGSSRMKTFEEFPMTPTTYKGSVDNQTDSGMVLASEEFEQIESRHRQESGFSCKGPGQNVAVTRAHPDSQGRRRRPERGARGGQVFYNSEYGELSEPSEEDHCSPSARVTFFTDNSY
Details: at 1 µM
Mark t only for residual activity values smaller than 60%; exact matches and larger values are f.

Solved entries:
>  <COMPOUND>
O=C(O)/C=C/c1cc(Br)c(Br)c(Br)c1Br

>  <CAT>
f

$$$$
>  <COMPOUND>
Fc1ccc(-c2nc3n(c2-c2ccncc2)CCS3)cc1

>  <CAT>
f

$$$$
>  <COMPOUND>
O=S(=O)(NCCNC/C=C/c1ccc(Br)cc1)c1cccc2cnccc12

>  <CAT>
f

$$$$

--- query ---
In the record for NC(=O)c1cccc(-c2cc(Nc3ccc(OC(F)(F)F)cc3)ncn2)c1 , is residual activity less than 60%? f

---

Target: Receptor tyrosine-protein kinase erbB-4 (Homo sapiens) (UniProt Q15303)
Sequence (Q15303 whole entry): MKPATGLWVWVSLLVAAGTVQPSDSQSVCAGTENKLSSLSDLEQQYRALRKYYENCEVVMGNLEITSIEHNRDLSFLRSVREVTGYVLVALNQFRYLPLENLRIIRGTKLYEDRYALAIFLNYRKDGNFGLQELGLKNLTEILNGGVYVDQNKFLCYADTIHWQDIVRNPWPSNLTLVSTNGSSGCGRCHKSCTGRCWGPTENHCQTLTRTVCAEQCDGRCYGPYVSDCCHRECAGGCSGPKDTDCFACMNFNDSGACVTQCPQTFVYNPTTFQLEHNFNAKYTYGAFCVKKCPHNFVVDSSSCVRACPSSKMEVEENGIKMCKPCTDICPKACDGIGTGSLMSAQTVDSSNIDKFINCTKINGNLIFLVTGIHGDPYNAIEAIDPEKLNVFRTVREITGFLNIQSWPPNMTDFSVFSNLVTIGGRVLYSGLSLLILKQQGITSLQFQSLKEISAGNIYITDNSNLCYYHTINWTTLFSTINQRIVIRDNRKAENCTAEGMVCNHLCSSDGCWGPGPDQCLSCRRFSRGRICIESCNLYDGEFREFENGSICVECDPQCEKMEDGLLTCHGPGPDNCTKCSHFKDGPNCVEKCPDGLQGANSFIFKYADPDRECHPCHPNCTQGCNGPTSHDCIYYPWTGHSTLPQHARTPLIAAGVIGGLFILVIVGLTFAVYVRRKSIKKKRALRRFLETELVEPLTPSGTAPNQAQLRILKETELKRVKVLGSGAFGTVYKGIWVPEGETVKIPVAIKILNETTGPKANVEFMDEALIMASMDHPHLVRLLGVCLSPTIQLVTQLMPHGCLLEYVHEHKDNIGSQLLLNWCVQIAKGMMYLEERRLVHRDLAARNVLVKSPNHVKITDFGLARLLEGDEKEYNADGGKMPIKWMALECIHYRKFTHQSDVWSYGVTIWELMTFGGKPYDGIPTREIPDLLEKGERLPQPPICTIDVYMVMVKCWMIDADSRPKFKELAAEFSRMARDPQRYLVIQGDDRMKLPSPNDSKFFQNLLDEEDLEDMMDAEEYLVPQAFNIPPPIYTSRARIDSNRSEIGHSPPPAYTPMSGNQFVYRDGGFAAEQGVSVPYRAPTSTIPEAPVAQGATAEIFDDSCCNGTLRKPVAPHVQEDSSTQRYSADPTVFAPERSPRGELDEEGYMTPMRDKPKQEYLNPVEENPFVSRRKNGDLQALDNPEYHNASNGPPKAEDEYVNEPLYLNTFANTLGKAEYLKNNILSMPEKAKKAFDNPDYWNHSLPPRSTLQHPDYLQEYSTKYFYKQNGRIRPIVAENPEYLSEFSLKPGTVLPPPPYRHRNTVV
Conditions: at 10 µM
RESULT_TYPE: residual activity
Note to self: number, then unit, no commentary.

// worked examples, residual activity included
>  <GIVEN_SMILES>
Cn1sc(=O)n(Cc2ccccc2)c1=O

>  <REPORTED>
98%

$$$$
>  <GIVEN_SMILES>
COc1ccc(Cl)cc1NC(=O)Nc1cc(C)nc2ccccc12

>  <REPORTED>
80%

$$$$
>  <GIVEN_SMILES>
O=c1c(-c2ccc(F)cc2)c(-c2ccncc2)[nH]n1-c1ccc(Cl)cc1

>  <REPORTED>
34%

$$$$
>  <GIVEN_SMILES>
O=c1cc(N2CCNCC2)oc2c(-c3ccccc3)cccc12

>  <REPORTED>
73%

$$$$
>  <GIVEN_SMILES>
NC(=O)Nc1sc(-c2ccc(F)cc2)cc1C(N)=O

>  <REPORTED>
59%

$$$$
>  <GIVEN_SMILES>
O=C(CCCc1ccc(-c2ccccc2F)cc1)Nc1ccc(O)cc1

>  <REPORTED>
127%

$$$$
>  <GIVEN_SMILES>
COc1ccc2c(c1)c(C1=C(c3c[nH]c4ccccc34)C(=O)NC1=O)cn2CCCN(C)C

>  <REPORTED>
53%

$$$$
>  <GIVEN_SMILES>
NCCNc1ncc(C(N)=O)c(Nc2cccc(C(F)(F)F)c2)n1

>  <REPORTED>
75%

$$$$

Alright, here's another compound for you.
Return reported residual activity; argument: COc1ccc(CNC(=O)Nc2ncc([N+](=O)[O-])s2)cc1 33%

---

I'd appreciate it if you could supply residual activity values for the items below.
Target: Interleukin-1 receptor-associated kinase 1 (Homo sapiens) (UniProt P51617)
Sequence (P51617 whole entry, looked up): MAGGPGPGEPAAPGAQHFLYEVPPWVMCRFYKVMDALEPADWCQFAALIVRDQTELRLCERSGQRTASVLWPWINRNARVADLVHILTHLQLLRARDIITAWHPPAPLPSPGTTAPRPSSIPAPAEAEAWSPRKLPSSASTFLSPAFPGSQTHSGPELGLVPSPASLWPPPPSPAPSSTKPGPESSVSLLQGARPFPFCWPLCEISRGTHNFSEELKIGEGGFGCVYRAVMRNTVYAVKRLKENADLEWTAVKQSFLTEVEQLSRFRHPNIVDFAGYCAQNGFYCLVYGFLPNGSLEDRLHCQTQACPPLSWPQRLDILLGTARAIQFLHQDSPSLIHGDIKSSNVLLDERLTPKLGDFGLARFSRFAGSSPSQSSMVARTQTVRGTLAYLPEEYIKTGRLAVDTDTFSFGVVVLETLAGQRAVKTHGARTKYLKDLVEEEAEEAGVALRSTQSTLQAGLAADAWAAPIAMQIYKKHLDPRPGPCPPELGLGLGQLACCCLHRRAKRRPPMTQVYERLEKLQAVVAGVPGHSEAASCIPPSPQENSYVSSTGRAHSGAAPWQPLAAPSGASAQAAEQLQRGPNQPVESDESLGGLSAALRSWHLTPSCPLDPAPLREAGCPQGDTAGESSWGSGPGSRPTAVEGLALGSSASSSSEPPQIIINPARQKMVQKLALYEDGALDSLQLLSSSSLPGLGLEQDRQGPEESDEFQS
Settings: at 10 µM
Note to self: number, then unit, no commentary.

>  <GIVEN_SMILES>
c1ccc(-c2cnc(Nc3ccc(OCCN4CCCC4)cc3)s2)cc1

>  <MEASUREMENT_TARGET>
Interleukin-1 receptor-associated kinase 1 (Homo sapiens) (UniProt P51617)

>  <residual activity>
42%

$$$$
>  <GIVEN_SMILES>
COc1cc2ncnc(Nc3cccc(Cl)c3)c2cc1OC

>  <MEASUREMENT_TARGET>
Interleukin-1 receptor-associated kinase 1 (Homo sapiens) (UniProt P51617)

>  <residual activity>
35%

$$$$
>  <GIVEN_SMILES>
Nc1n[nH]c2nc3ccccc3nc12

>  <MEASUREMENT_TARGET>
Interleukin-1 receptor-associated kinase 1 (Homo sapiens) (UniProt P51617)

>  <residual activity>
98%

$$$$
>  <GIVEN_SMILES>
O=C1Nc2ccc(Cl)cc2/C1=C/c1cc(Cl)c(O)c(Cl)c1

>  <MEASUREMENT_TARGET>
Interleukin-1 receptor-associated kinase 1 (Homo sapiens) (UniProt P51617)

>  <residual activity>
81%

$$$$
>  <GIVEN_SMILES>
CC(C)c1nn(-c2c(Cl)cccc2Cl)c2nc(Cc3ccc(OCCO)cc3)[nH]c(=O)c12

>  <MEASUREMENT_TARGET>
Interleukin-1 receptor-associated kinase 1 (Homo sapiens) (UniProt P51617)

>  <residual activity>
84%

$$$$
>  <GIVEN_SMILES>
CCN(CC)CCNC(=O)c1c(C)[nH]c(/C=C2\C(=O)Nc3ccc(Cl)cc32)c1C

>  <MEASUREMENT_TARGET>
Interleukin-1 receptor-associated kinase 1 (Homo sapiens) (UniProt P51617)

>  <residual activity>
0%

$$$$
>  <GIVEN_SMILES>
CC(C)(C)c1nc2c3ccc(F)cc3c3c(=O)[nH]ccc3c2[nH]1

>  <MEASUREMENT_TARGET>
Interleukin-1 receptor-associated kinase 1 (Homo sapiens) (UniProt P51617)

>  <residual activity>
62%

$$$$
>  <GIVEN_SMILES>
O=c1cc(N2CCOCC2)oc2c1ccc1ccccc12

>  <MEASUREMENT_TARGET>
Interleukin-1 receptor-associated kinase 1 (Homo sapiens) (UniProt P51617)

>  <residual activity>
88%

$$$$

Provide reported residual activity for each item, in the same order as listed.
1. Cn1c2ccccc2c2c3c(c4c5ccccc5n(CCC#N)c4c21)CNC3=O
2. CC(C)[C@H](CO)Nc1nc(Nc2cc(N)cc(Cl)c2)c2ncn(C(C)C)c2n1
3. O=C(c1cc2cc(O)ccc2[nH]1)c1cc2cc(O)ccc2[nH]1

44%
49%
23%
